# assay_system: LIMK1, P53667
# Sequence (P53667 155-268): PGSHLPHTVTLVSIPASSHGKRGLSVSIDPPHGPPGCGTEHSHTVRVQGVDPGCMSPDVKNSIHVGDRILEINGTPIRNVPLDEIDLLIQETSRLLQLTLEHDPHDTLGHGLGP
# experiment_description: holdup assay
# Parameters: key: below the threshold = too weak to quantify, mostly under pKd 3.1 to 4
# setup_conditions: plain residues with an end cap or a label only (N-terminal biotin on a linker: ttds)
property_name: pKd

INSERT INTO results (binder, property_name, assay_result) VALUES
  ('QRQARSETLV [HPV59-E6, Q81964]', 'pKd', 'below the threshold'),
  ('SSLQSLETSV [ATP2B4, P23634]', 'pKd', 'below the threshold'),
  ('SGSRPSATVV [HPV73-E6, Q82005]', 'pKd', 'below the threshold'),
  ('RLPKIKETTV [FRMPD4, Q14CM0]', 'pKd', 4.48),
  ('RLQRRRETQV [HPV18-E6, P06463]', 'pKd', 'below the threshold'),
  ('RHTTSTETAV [HPV30-E6, P36809]', 'pKd', 'below the threshold');
